# TEST_DETAILS: Oral bioavailability in rhesus
# Type: ADME, organism-based, Macaca mulatta
# RUN_CONDITIONS: rhesus monkey, in vivo
ASSAY_ENDPOINT: bioavailability

# input compound: Cc1cc(-c2nncc3c(C(C)(C)C)c(OCc4ncnn4C)nn23)no1 ; wanted: its bioavailability
< 2%

###

# TEST_DETAILS: Efficacy against human GABA alpha-3 receptor expressed in mouse fibroblast L(tk-) cells by whole cell patch clamp method
# Format: functional
ASSAY_ENDPOINT: Efficacy (%)
One number for each entry, in %.

Look at each compound and report its Efficacy.
1. Cc1cc(-c2nncc3c(C(C)(C)CO)c(OCc4ncnn4C)nn23)no1
2. Cn1ncnc1COc1nn2c(-c3cc(CO)on3)nncc2c1C(C)(C)C
3. Cc1cc(-c2nncc3c(C(C)(C)C)c(OCc4ncnn4C)nn23)no1
4. Cn1ncnc1COc1nn2c(-c3cc(CO)on3)nncc2c1C(C)(C)CO
5. Cc1cc(-c2nnc(O)c3c(C(C)(C)C)c(OCc4ncnn4C)nn23)no1

-32
-15
-9
-39
-8
